molecular target: FnFabK (Fusobacterium nucleatum subsp. nucleatum, UniProt Q8RGV3); assay: biochemical; conditions: IC50 against FnFabK, equivalent concentration, conversion of the μM value
Sequence (Q8RGV3 entry or part of it): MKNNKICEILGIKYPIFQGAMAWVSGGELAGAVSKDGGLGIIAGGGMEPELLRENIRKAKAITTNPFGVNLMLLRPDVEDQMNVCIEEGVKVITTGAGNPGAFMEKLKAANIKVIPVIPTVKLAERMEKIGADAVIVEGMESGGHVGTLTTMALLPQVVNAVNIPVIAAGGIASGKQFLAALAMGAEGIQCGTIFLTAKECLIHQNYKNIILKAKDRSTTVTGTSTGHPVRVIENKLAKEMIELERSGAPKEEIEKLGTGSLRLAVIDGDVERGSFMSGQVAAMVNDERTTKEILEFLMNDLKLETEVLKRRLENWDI
Recorded IC50 values for a group of compounds are listed next.
ENDPOINT_NAME: IC50 (µM)

>>> endpoint_value("O=C(NCc1nc(-c2ccc(Br)cc2)c[nH]1)Nc1nc2ccccc2s1")
10.7
>>> endpoint_value("CS(=O)(=O)c1ccc2nc(NC(=O)NCc3nc(-c4ccc(Br)cc4)c[nH]3)sc2c1")
1.97

---

assay: Cytotoxicity against HCT116 cells (resazurin viability); assay type: cell-based; conditions: human, HCT116 colorectal carcinoma cells, maximum tested concentration 100 μg/mL
ENDPOINT_NAME: IC50 at 24 h

>>> endpoint_value("CS(=O)(=O)c1ccc2nc(NC(=O)NCc3nc(-c4ccc(Br)cc4)c[nH]3)sc2c1")
"> 100 µg/mL"

---

This listing pairs compounds with measured MIC Fn 23726.
system: F. nucleatum 23726; experiment: MIC against F. nucleatum 23726; format: cell-based, Fusobacterium nucleatum; details: F. nucleatum 23726 wild-type; three biological replicates
ENDPOINT_NAME: MIC Fn 23726 (µg/mL)

>>> endpoint_value("O=C(NCc1nc(-c2ccc(Br)cc2)c[nH]1)Nc1nc2c(F)cc(F)cc2s1")
100
>>> endpoint_value("O=C(NCc1nc(-c2ccc(Br)cc2)c[nH]1)Nc1ncc(Sc2nc3ccccc3s2)s1")
100
>>> endpoint_value("O=C(NCc1nc(-c2ccc(Br)cc2)c[nH]1)Nc1ncc(Sc2ncccn2)s1")
6.3
>>> endpoint_value("O=C(NCc1nc(-c2ccc(Br)cc2)c[nH]1)Nc1nc2ccc(Br)cc2s1")
25
>>> endpoint_value("O=C(NCc1nc(-c2ccccc2)n[nH]1)Nc1ncc(Sc2ccccn2)s1")
100
>>> endpoint_value("O=C(NCc1nc(-c2ccc(Br)cc2)c[nH]1)Nc1ncc(Sc2ccc(C(F)(F)F)cn2)s1")
3.1
>>> endpoint_value("O=C(NCc1nc(-c2ccc(Br)cc2)c[nH]1)Nc1ncc(Sc2ccc(Br)cc2)s1")
100
>>> endpoint_value("O=C(NCc1nc(-c2ccc(Br)cc2)c[nH]1)Nc1ncc(Sc2ncccc2C(F)(F)F)s1")
3.1
>>> endpoint_value("O=C(NCc1nc(-c2ccc(Br)cc2)c[nH]1)Nc1ncc(Sc2ccccn2)s1")
100
>>> endpoint_value("O=C(NCc1nc(-c2ccc(Br)cc2)c[nH]1)Nc1nc2cc(Cl)ccc2s1")
6.3
>>> endpoint_value("O=C(NCc1nc(-c2ccc(Br)cc2)c[nH]1)Nc1ncc(Sc2ccc(Cl)cn2)s1")
3.1
>>> endpoint_value("O=C(NCc1nc(-c2ccc(Br)cc2)c[nH]1)Nc1ncc(Sc2ccc3ccccc3n2)s1")
100
>>> endpoint_value("CCOc1ccc2sc(NC(=O)NCc3nc(-c4ccc(Br)cc4)c[nH]3)nc2c1")
25
>>> endpoint_value("O=C(NCc1nc2ccccc2[nH]1)Nc1ncc(Sc2ccccn2)s1")
100
>>> endpoint_value("O=C(NCc1nc(-c2ccc(Br)cc2)c[nH]1)Nc1nc2ccc(F)cc2s1")
100

---

biological target: FnFabK (Fusobacterium nucleatum subsp. nucleatum, UniProt Q8RGV3); assay: biochemical; settings: IC50 against FnFabK, purified FnFabK, three replicates
pIC50: −log10 of the molar value.
ENDPOINT_NAME: pIC50

>>> endpoint_value("O=C(NCc1nc(-c2ccc(Br)cc2)c[nH]1)Nc1nc2ccccc2s1 [Compound 701]")
4.97
